B1: TRIM35 (parent)
chain: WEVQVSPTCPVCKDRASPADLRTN

# Variants of: B1
# assaySummary: protein stability index of a GFP-peptide fusion (GPS, HEK-293T) (PSI 1-6); higher = more stable;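 note: lentivirally expressed fusions sorted by FACS into six bins by GFP to DsRed ratio, PSI derived from sequencing read proportions per bin multiplied by bin number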
# appliedConditions: c terminus: a fixed tail appended
assayReadout: protein stability index

> print(dat)
    mutant             assayreadout  measvalue
 1    R15L  protein stability index       2.47
 2    A16W  protein stability index       1.85
 3    N24S  protein stability index       2.57
 4    N24P  protein stability index       2.47
 5    N24V  protein stability index       1.19
 6     Q4K  protein stability index       2.07
 7    P18T  protein stability index       2.57
 8    A16S  protein stability index       2.42
 9     E2M  protein stability index       1.41
10    V11Q  protein stability index        2.3
11     E2N  protein stability index        2.3
12    N24F  protein stability index       1.55
13    K13C  protein stability index       1.72
14     T8Q  protein stability index       2.33
15     E2W  protein stability index       1.68
16    K13I  protein stability index       2.17
17     T8P  protein stability index       2.92
18    L21H  protein stability index       2.54
19     V3Q  protein stability index       2.96
20    A16L  protein stability index       1.82
21    L21I  protein stability index       2.59
22    R15H  protein stability index       2.46
